Data provenance is patent US9688764B2.

testedTarget: T1, hPRLR.mFc (soluble dimeric human PRLR) (Homo sapiens, UniProt P16471)
T1 construct: dimeric (hPRLR.mFc)
T1 sequence (P16471 with tags, fused parts or gaps): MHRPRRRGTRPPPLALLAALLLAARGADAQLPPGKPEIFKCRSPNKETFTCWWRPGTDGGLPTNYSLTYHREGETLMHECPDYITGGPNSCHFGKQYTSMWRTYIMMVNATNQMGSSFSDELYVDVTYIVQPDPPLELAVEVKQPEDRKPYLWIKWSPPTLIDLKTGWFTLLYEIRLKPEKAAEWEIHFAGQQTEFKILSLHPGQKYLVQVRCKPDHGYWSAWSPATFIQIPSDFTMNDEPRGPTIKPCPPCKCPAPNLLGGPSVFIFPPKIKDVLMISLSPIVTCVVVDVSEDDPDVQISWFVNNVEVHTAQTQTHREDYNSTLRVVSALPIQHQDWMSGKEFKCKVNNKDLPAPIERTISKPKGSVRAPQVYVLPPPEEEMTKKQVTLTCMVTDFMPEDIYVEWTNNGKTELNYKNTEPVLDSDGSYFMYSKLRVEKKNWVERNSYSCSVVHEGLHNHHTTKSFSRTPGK
protocolDescription: Surface plasmon resonance (Biacore T200), mAb-capture format
Type: binding
conditionDetails: 25° C., antibody-capture format, analyte hPRLR.mFc
observedProperty: T½ (min)
Response body: numeric value in min, unit text excluded.

**Query** Using known records, supply T½ for H1H6959N2: human IgG1 Fc form of H2M6959N2; anti-PRLR; HCVR/LCVR SEQ ID NOs 306/314 (antibody, V domains shown, human IgG1 Fc) VH: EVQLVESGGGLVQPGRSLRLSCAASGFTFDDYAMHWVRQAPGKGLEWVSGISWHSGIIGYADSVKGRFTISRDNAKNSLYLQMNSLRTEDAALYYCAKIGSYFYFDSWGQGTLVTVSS VL: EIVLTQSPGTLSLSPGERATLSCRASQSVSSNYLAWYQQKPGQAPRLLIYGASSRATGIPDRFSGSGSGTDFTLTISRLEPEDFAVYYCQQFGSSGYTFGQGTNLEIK
**Result** 22.3
